Taken from the supplement of paper PMC6992640.

tested on: UCD52 (cells of a triple-negative basal-like breast cancer xenograft); experiment: cell viability of combination (% of vehicle); higher = less cytotoxic; settings: 1 µM; 72 h; partner dose: 10 nM
Assignment: determine reported cell viability of combination for the given compounds.

Task: Sample Cc1cc(C(C#N)c2ccc(Cl)cc2)c(Cl)cc1NC(=O)c1cc(I)cc(I)c1[O-].[Na+] (centres undefined) [Closantel Sodium] + CN(C)C/C=C/C(=O)Nc1cc2c(Nc3ccc(F)c(Cl)c3)ncnc2cc1O[C@H]1CCOC1 — what was its cell viability of combination?
Result: 72.7

Task: I'd like to know its cell viability of combination. The compound in question is CCCCCCCCCCCCCCCC[N+](C)(C)C.[Br-] [Cetrimonium Bromide (CTAB)] + CN(C)C/C=C/C(=O)Nc1cc2c(Nc3ccc(F)c(Cl)c3)ncnc2cc1O[C@H]1CCOC1
Result: 66.1

Task: Dear colleague, I am looking for the recorded cell viability of combination of the following compound: CCCCCCCCCCCCCCCC[n+]1ccccc1.[Cl-] [Cetylpyridinium Chloride] + CN(C)C/C=C/C(=O)Nc1cc2c(Nc3ccc(F)c(Cl)c3)ncnc2cc1O[C@H]1CCOC1
Result: 55.3

Task: Return reported cell viability of combination; argument: CCCCCCCCCCCC[N+](C)(C)CCOc1ccccc1.[Br-] [Domiphen Bromide] + CN(C)C/C=C/C(=O)Nc1cc2c(Nc3ccc(F)c(Cl)c3)ncnc2cc1O[C@H]1CCOC1
Result: 65.3

###

test system: HCI16 (cells of a triple-negative basal-like breast cancer xenograft); assay: cell viability (% of vehicle); higher = less cytotoxic; conditions: 10 µM; 72 h
reported_property: cell viability
// response body must contain only the number

Task: Field request: cell viability | item: Cc1cccc(C(C)c2cnc[nH]2)c1C.Cl (stereo unspecified) [Dexmedetomidine HCl]
Result: 89.9

Task: Request the reported cell viability associated with O=c1[nH]c2ccccc2n1C1CCN(CCCC(c2ccc(F)cc2)c2ccc(F)cc2)CC1 [Pimozide]
Result: 103

Task: Which cell viability is listed for Cc1cc(C(C#N)c2ccc(Cl)cc2)c(Cl)cc1NC(=O)c1cc(I)cc(I)c1[O-].[Na+] (stereo unspecified) [Closantel Sodium] ?
Result: 96.3

Task: Can you share its cell viability? I mean this compound: C[N+]1(C)[C@@H]2C[C@@H](OC(=O)C(CO)c3ccccc3)C[C@H]1[C@@H]1O[C@@H]12.[Br-] (stereo partly specified)
Result: 97.9

Task: Would you kindly share the measured cell viability for O=P1(NCCCl)OCCCN1CCCl (stereo unspecified) [Ifosfamide] ?
Result: 74.4

Task: Recorded cell viability for CC(=O)Nc1cc([As](=O)(O)O)ccc1O , please?
Result: 105

Task: # input compound: CCCC[N+]1(C)[C@@H]2C[C@@H](OC(=O)[C@H](CO)c3ccccc3)C[C@H]1[C@@H]1O[C@@H]12 (stereo partly specified) [Scopolamine butylbromide] ; wanted: its cell viability
Result: 119

Task: Fill in the blank: the reported cell viability of Cc1cccc(C)c1NC1=NCCCS1.Cl [Xylazine HCl] is ____.
Result: 124

Task: Look at this compound and give its reported cell viability. Oc1cc(Cl)ccc1Oc1ccc(Cl)cc1Cl
Result: 137

Task: Requested read-out: cell viability. Entry: CN1C(=O)CCS(=O)(=O)C1c1ccc(Cl)cc1 (stereo unspecified)
Result: 122

Task: Which cell viability value is on record for CNC1CC(N)C(O)C(OC2OC(CO)C(O)C3OC4(OC(C(N)CO)C(O)C(O)C4O)OC23)C1O (stereo unspecified) ?
Result: 94.3

Task: Which cell viability is reported for this compound? CCCN1CC(CSC)CC2c3cccc4[nH]cc(c34)CC21.CS(=O)(=O)O (stereo unspecified) [Pergolide mesylate]
Result: 124

Task: Requested field: cell viability. Item: CNCC(=O)c1ccc(O)c(O)c1.Cl [Adrenalone HCl]
Result: 152

Task: Recorded cell viability for C[N+]1(C)CCCC(OC(=O)C(O)(c2ccccc2)c2ccccc2)C1.[Br-] (stereo unspecified) [Mepenzolate Bromide] , please?
Result: 108

Task: Name the recorded cell viability for CCCCCCCCCCCCCCCC[N+](C)(C)C.[Br-] [Cetrimonium Bromide (CTAB)] .
Result: 69.1

Task: Form field: reported cell viability of COc1cc2c(c(OC)c1OC)-c1ccc(OC)c(=O)cc1C(NC(C)=O)CC2 (stereo unspecified)
Result: 108

###

system: HCI03 (cells of an ER-positive luminal breast cancer xenograft); test: cell viability (% of vehicle); higher = less cytotoxic; details: 10 µM; 72 h
cell viability under 100 gets yes, anything at or over 100 gets no.

Task: Take the compound CN(C)C(=O)C(CCN1CCC(O)(c2ccc(Cl)cc2)CC1)(c1ccccc1)c1ccccc1.Cl [Loperamide HCl] and say whether its cell viability is less than 100.
Result: yes

Task: Please indicate whether the reported cell viability of CCNCC.O=C(O)Cc1ccccc1Nc1c(Cl)cccc1Cl [Diclofenac Diethylamine] is strictly below 100.
Result: yes

Task: cell viability strictly < 100 for this compound? CCOC(=O)c1cncn1C(C)c1ccccc1.Cl (centres undefined) [Etomidate hydrochloride]
Result: no

Task: cell viability strictly < 100 for this compound? CN(C)C(=O)Oc1ccc[n+](C)c1.[Br-] [Pyridostigmine Bromide]
Result: no

Task: Does Nc1nc(N)nc(NC2CC2)n1 [Cyromazine] have cell viability strictly under 100?
Result: no

Task: Report whether reported cell viability is lower than 100 (strictly) for CCC(C(N)=O)N1CCCC1=O (centres undefined) [Levetiracetam]
Result: no

###

tested on: WHIM30 (cells of a triple-negative basal-like breast cancer xenograft); test: cell viability (% of vehicle); higher = less cytotoxic; conditions: 10 µM; 72 h
Param label: returns t when cell viability < 100, returns f otherwise, including exact equality.

Task: Confirm or reject: cell viability of C[N+]1(C)CCCC(OC(=O)C(O)(c2ccccc2)c2ccccc2)C1.[Br-] (configuration not stated) [Mepenzolate Bromide] lies strictly below 100
Result: f

Task: Check if cell viability falls below 100 for Br.CN1C2CC(OC(=O)C(CO)c3ccccc3)CC1C1OC12 (configuration not stated) [Scopolamine hydrobromide] .
Result: f

Task: Does C=CCN1CCC23c4c5ccc(O)c4OC2C(=O)CCC3(O)C1C5.Cl (configuration not stated) [Naloxone HCl] have cell viability strictly under 100?
Result: t

Task: # check: cell viability < 100 for CN1C2CCC1CC(OC(=O)C(CO)c1ccccc1)C2 (configuration not stated)
Result: f

Task: Consider the compound O=c1[nH]c2ccccc2n1C1CCN(CCCC(c2ccc(F)cc2)c2ccc(F)cc2)CC1 [Pimozide] . Is its cell viability strictly less than 100?
Result: t

###

tested on: HCI13 (cells of an ER-positive luminal breast cancer xenograft); assay: cell viability (% of vehicle); higher = less cytotoxic; settings: 10 µM; 72 h
Exercise: for every item that follows, state its recorded cell viability.

Task: Quick one: cell viability of CCC1(c2ccc(N)cc2)CCC(=O)NC1=O (centres undefined) [Aminoglutethimide] ?
Result: 112

Task: Consider the molecule shown here: Cc1cccc(C)c1NC1=NCCCS1.Cl [Xylazine HCl] What is its recorded cell viability?
Result: 105

Task: Looking for the measured cell viability of Cc1cccc(C(C)c2cnc[nH]2)c1C.Cl (centres undefined) [Dexmedetomidine HCl] , can you help?
Result: 82.7

Task: Looking for the measured cell viability of c1ccc2c(c1)sc1ccccc12 [Dibenzothiophene] , can you help?
Result: 85

Task: Look at this molecule and give its reported cell viability. CN(C)C1C(=O)C(C(N)=O)=C(O)C2(O)C(=O)C3=C(O)c4c(O)cccc4C(C)(O)C3C(O)C12 (centres undefined) [Oxytetracycline (Terramycin)]
Result: 115

Task: Given the molecule Cc1ccc(-n2nccn2)c(C(=O)N2CCN(c3nc4cc(Cl)ccc4o3)CCC2C)c1 (centres undefined) , what is its reported cell viability?
Result: 101

Task: Using the record for COc1ccc(C(=O)N2CCCC2=O)cc1 [Aniracetam] , report its cell viability.
Result: 139

Task: Requested read-out: cell viability. Entry: CNC1CC(N)C(O)C(OC2OC(CO)C(O)C3OC4(OC(C(N)CO)C(O)C(O)C4O)OC23)C1O (centres undefined) [Hygromycin B]
Result: 114

Task: Looking for the measured cell viability of CC12CCC3C(CC=C4CC(O)CCC43C)C1CCC2=O (centres undefined) [Dehydroepiandrosterone (DHEA)] , can you help?
Result: 111

Task: Tell me the measured cell viability of O=C(O)c1nn(Cc2ccc(Cl)cc2Cl)c2ccccc12 [Lonidamine] , please.
Result: 85.1

Task: For the molecule shown here, Cl.NCCc1c[nH]c2ccc(O)cc12 [Serotonin HCl] , give the reported cell viability.
Result: 57.8

Task: # get_value(readout='cell viability', item= Br.COC(=O)C1=CCCN(C)C1 [Arecoline hydrobromide] )
Result: 103

Task: Consider the molecule N/C(N)=N\N.Cl [Aminoguanidine hydrochloride] and give its measured cell viability.
Result: 90

Task: Which cell viability reading was recorded for the molecule O=C(O)CCCc1ccc(N(CCCl)CCCl)cc1 [Chlorambucil] ?
Result: 113

Task: Quick check: cell viability of CC(C)OC(=O)[C@H](C)N[P@](=O)(CO[C@H](C)Cn1cnc2c(N)ncnc21)Oc1ccccc1 ?
Result: 65.7

Task: Using the record for CC(C)N(CCNC(=O)CN1CCCC1=O)C(C)C [Pramiracetam] , report its cell viability.
Result: 120

Task: Given Cc1cc(O)ccc1Cl [Chlorocresol] , state its recorded cell viability.
Result: 77.6

Task: Reported cell viability for CN1C2CCC1CC(OC(=O)C(CO)c1ccccc1)C2 (centres undefined) [Hyoscyamine] : what is it?
Result: 145

Task: Which measured cell viability value corresponds to CC12CC(=CO)C(=O)CC1CCC1C2CCC2(C)C1CCC2(C)O (centres undefined) [Oxymetholone] ?
Result: 54.8
